- EXPERIMENTAL_PROTOCOL: chemical genetic growth profiling, strain panel (AID 1159580);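 note: tested at 20 µM; growth read once vehicle control cultures reached saturation at 30 °C; 1 = growth at the plate median or of vehicle wells; lower values mean less growth of the strain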
- REPORTED_CONDITIONS: S. cerevisiae deletion strains, growth OD, locus YCR088W, strain abp1, stronger effect = lower value
Out of some 5,500 compounds screened, about 2,000 (36%) were called active. Another 18% or so got no clear call; they are omitted. This is one part of the list.
READOUT_KIND: normalized growth

[[record]]
compound = "COC1=CC23CCCN2CCc2cc4c(cc2C3C1O)OCO4 (stereo not given)"
measured_number = 1.03

[[record]]
compound = "CC(C)c1cc2c(c(O)c1O)[C@@]1(C(=O)O)CCCC(C)(C)C1CC2 (stereo not given in full)"
measured_number = 0.991

[[record]]
compound = "CNC(=O)N(C)c1nnc(C(C)(C)C)s1"
measured_number = 0.988

[[record]]
compound = "C=C(C)C1Cc2c(ccc3c(=O)c4c(oc23)COc2cc(OC)c(OC)cc2-4)O1 (stereo not given)"
measured_number = 0.996

[[record]]
compound = "CCC[C@@H]1C[C@@H](C(=O)N[C@H]([C@H]2O[C@H](SC)[C@H](O)[C@@H](O)[C@H]2O)[C@H](C)O)N(C)C1"
measured_number = 0.973

